- PROCEDURE_SUMMARY: Ex vivo biodistribution of 177Lu-labeled radioligands in tumor-free nude mice
- ASSAY_CONDITIONS: mouse, kidney, intravenous, 1.11 MBq, total radioactivity, 6 h p.i., read-out: radioactivity uptake in kidneys (biodistribution)
PROPERTY_MEASURED: tissue uptake at 6 h (%ID/g)
Answer in %ID/g, number only, no unit symbol.

Can you look up the measured tissue uptake at 6 h of CCCCCC(=O)N[C@H]1CSCc2cc(CSCCNC(=O)[C@H](CCCCN)NC(=O)[C@@H](NC(=O)[C@H](CCSC)NC(=O)CN3CCN(CC(=O)O)CCN(CC(=O)O)CCN(CC(=O)O)CC3)C(C)C)cc(c2)CSC[C@@H](C(=O)O)NC(=O)[C@H](Cc2ccccc2)NC(=O)[C@H](CCC(N)=O)NC(=O)[C@H]([C@@H](C)O)NC(=O)[C@@H]2CCCN2C(=O)[C@@H]2CCCN2C1=O [[^177Lu]Lu-DOTA-FD1, metal not drawn] for me?
30.4

====

- PROCEDURE_SUMMARY: [68Ga]Ga-DOTA-FD1 PET/CT imaging in tumor patients
- Type: in vivo, human
- ASSAY_CONDITIONS: human, primary tumour lesions; 4 primary lesions, initial staging patients, 60 min after injection; read-out: median SUVmax of primary lesions
PROPERTY_MEASURED: SUV at 1 h (SUV)
Answer in SUV, number only, no unit symbol.

Can you look up the measured SUV at 1 h of CCCCCC(=O)N[C@H]1CSCc2cc(CSCCNC(=O)[C@H](CCCCN)NC(=O)[C@@H](NC(=O)[C@H](CCSC)NC(=O)CN3CCN(CC(=O)O)CCN(CC(=O)O)CCN(CC(=O)O)CC3)C(C)C)cc(c2)CSC[C@@H](C(=O)O)NC(=O)[C@H](Cc2ccccc2)NC(=O)[C@H](CCC(N)=O)NC(=O)[C@H]([C@@H](C)O)NC(=O)[C@@H]2CCCN2C(=O)[C@@H]2CCCN2C1=O [[^68Ga]Ga-DOTA-FD1, metal not drawn] for me?
8.86

====

- PROCEDURE_SUMMARY: microPET/CT imaging, ROI analysis, HT1080-FAP tumor models
- Assay type: in vivo, mice
- ASSAY_CONDITIONS: nude (thymus-free), mouse, kidney, intravenous, 750 ug; HT1080-FAP models, co-injected excess unlabeled FD1 (750 μg); read-out: kidney accumulation (ROI analysis) upon FD1 blocking
PROPERTY_MEASURED: tissue uptake (%ID/g)
Answer in %ID/g, number only, no unit symbol.

Can you look up the measured tissue uptake of CCCCCC(=O)N[C@H]1CSCc2cc(CSCCNC(=O)[C@H](CCCCN)NC(=O)[C@@H](NC(=O)[C@H](CCSC)NC(=O)CN3CCN(CC(=O)O)CCN(CC(=O)O)CCN(CC(=O)O)CC3)C(C)C)cc(c2)CSC[C@@H](C(=O)O)NC(=O)[C@H](Cc2ccccc2)NC(=O)[C@H](CCC(N)=O)NC(=O)[C@H]([C@@H](C)O)NC(=O)[C@@H]2CCCN2C(=O)[C@@H]2CCCN2C1=O [[^68Ga]Ga-DOTA-FD1, metal not drawn] for me?
10.3

====

- PROCEDURE_SUMMARY: Ex vivo biodistribution after imaging, HT1080-FAP tumor models
- Assay type: in vivo, mice
- ASSAY_CONDITIONS: nude (thymus-free), mouse, kidney, intravenous, 3 MBq, total radioactivity; HT1080-FAP models, without blocking; read-out: kidney accumulation (biodistribution analysis)
PROPERTY_MEASURED: tissue uptake (%ID/g)
Answer in %ID/g, number only, no unit symbol.

Can you look up the measured tissue uptake of CCCCCC(=O)N[C@H]1CSCc2cc(CSCCNC(=O)[C@H](CCCCN)NC(=O)[C@@H](NC(=O)[C@H](CCSC)NC(=O)CN3CCN(CC(=O)O)CCN(CC(=O)O)CCN(CC(=O)O)CC3)C(C)C)cc(c2)CSC[C@@H](C(=O)O)NC(=O)[C@H](Cc2ccccc2)NC(=O)[C@H](CCC(N)=O)NC(=O)[C@H]([C@@H](C)O)NC(=O)[C@@H]2CCCN2C(=O)[C@@H]2CCCN2C1=O [[^68Ga]Ga-DOTA-FD1, metal not drawn] for me?
110

The reported numbers originate from paper PMC11066877.
